B1: HDV Ribozyme (parent)
chain: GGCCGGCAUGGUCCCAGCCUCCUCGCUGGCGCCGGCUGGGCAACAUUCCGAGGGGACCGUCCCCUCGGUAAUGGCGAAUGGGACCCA

Variants of: B1
ASSAY TEXT: self-cleavage, relative activity (ratio to wild type); higher = more cleavage; co-transcriptional
MEASUREMENT TYPE: self-cleavage

INSERT INTO results (variant_identifier, measurement_type, data_value) VALUES
  ('G38C U72G', 'self-cleavage', 0),
  ('G2C C33U', 'self-cleavage', 0.0608),
  ('C15U G80A', 'self-cleavage', 0.992),
  ('U79G G80U', 'self-cleavage', 0.366),
  ('G6A G34C', 'self-cleavage', 0.104),
  ('U27G G76U', 'self-cleavage', 0.855);
